# credit: patent US9701707B2

experimental_details: Equilibrium solubility in organic solvents
Type: physicochemical
measurement_context: organic solvent or mixture, thermodynamic from solid; Ethanol, RT
readout_kind: solubility at 24 h

Could you tell me which solubility at 24 h is on file for CC(C)N(C[C@H]1O[C@@H](n2cnc3c(N)ncnc32)[C@H](O)[C@@H]1O)[C@H]1C[C@@H](CCc2nc3cc(C(C)(C)C)ccc3[nH]2)C1 [Form B, trihydrate] ?
> 87 mg/mL

====

experimental_details: Equilibrium solubility in aqueous media
Format: physicochemical
measurement_context: 50 mM sodium citrate buffer, 25 °C, pH 6, aqueous buffer, thermodynamic from solid, 50 mM sodium citrate, pH (initial) 6.0, pH (final) 6.0, RT
readout_kind: solubility at 24 h (mg/mL)
I only need the number, in mg/mL, no unit after it.

Could you tell me which solubility at 24 h is on file for CC(C)N(C[C@H]1O[C@@H](n2cnc3c(N)ncnc32)[C@H](O)[C@@H]1O)[C@H]1C[C@@H](CCc2nc3cc(C(C)(C)C)ccc3[nH]2)C1 [Form B, trihydrate] ?
0.08

====

experimental_details: Solubility in Simulated Gastric Fluid (SGF) at 37° C.
Assay type: physicochemical
measurement_context: Simulated Gastric Fluid (SGF), pH 1.8, simulated gastric fluid, thermodynamic from solid, 60 min, calculated using free base content
readout_kind: solubility at 60 min (µg/mL)
I only need the number, in µg/mL, no unit after it.

Could you tell me which solubility at 60 min is on file for CC(C)N(CC1O[C@@H](n2cnc3c(N)ncnc32)[C@H](O)[C@@H]1O)C1CC(CCc2nc3cc(C(C)(C)C)ccc3[nH]2)C1 (stereo partly shown) [Form A, hydrate] ?
5300

====

experimental_details: Equilibrium solubility in organic solvents
Assay type: physicochemical
measurement_context: organic solvent or mixture, thermodynamic from solid; Methanol, RT
readout_kind: solubility at 24 h

Could you tell me which solubility at 24 h is on file for CC(C)N(C[C@H]1O[C@@H](n2cnc3c(N)ncnc32)[C@H](O)[C@@H]1O)[C@H]1C[C@@H](CCc2nc3cc(C(C)(C)C)ccc3[nH]2)C1 [Form B, trihydrate] ?
> 200 mg/mL

====

experimental_details: Equilibrium solubility in organic solvents
Format: physicochemical
measurement_context: organic solvent or mixture, thermodynamic from solid; Isopropanol, RT
readout_kind: solubility at 24 h

Could you tell me which solubility at 24 h is on file for CC(C)N(C[C@H]1O[C@@H](n2cnc3c(N)ncnc32)[C@H](O)[C@@H]1O)[C@H]1C[C@@H](CCc2nc3cc(C(C)(C)C)ccc3[nH]2)C1 [Form B, trihydrate] ?
> 129 mg/mL

====

experimental_details: Solubility in Simulated Gastric Fluid (SGF) at 37° C.
Format: physicochemical
measurement_context: Simulated Gastric Fluid (SGF), pH 1.8, simulated gastric fluid, thermodynamic from solid, 30 min, calculated using free base content
readout_kind: solubility at 30 min (µg/mL)
I only need the number, in µg/mL, no unit after it.

Could you tell me which solubility at 30 min is on file for CC(C)N(CC1O[C@@H](n2cnc3c(N)ncnc32)[C@H](O)[C@@H]1O)C1CC(CCc2nc3cc(C(C)(C)C)ccc3[nH]2)C1 (stereo partly shown) [Form A, hydrate] ?
5500
